These entries and their values trace back to PubChem BioAssay (NCI).

Tested on: T-47D breast
Test: NCI-60 one-dose screen, 48 h (100 = growth as untreated, 0 = no growth, -100 = all killed)
Conditions: 10 µM unless noted
The panel holds about 83,000 compounds, 20% with a hit somewhere; the sample as a whole holds those more often. Active and inactive are the calls of the source. The calls were made as follows: active = growth percent below 10; inactive = the rest.
PARAMETER: growth

Field: example entries. Status: answers known.
Lookup: Given `Cc1cnc(Nc2ccc(OCCN3CCCC3)cc2)nc1Nc1cccc(S(=O)(=O)NC(C)(C)C)c1` , state its recorded growth.
Found: 12.5% (inactive)

Lookup: Fill in the blank: the reported growth of COc1cc(C2CC(c3ccc(Cl)cc3)=NN2c2ccc(Cl)cc2)cc(OC)c1OC (centres undefined) is ____.
Found: 86.1% (inactive)

Lookup: Which growth reading was recorded for the compound `C/C(=C(/c1ccc(Cl)cc1)c1ccc(OCCN2CCCCCC2)cc1)c1ccccc1` ?
Found: 71.1% (inactive)

Lookup: Give the measured growth of `COc1cc2c(Oc3ccc4[nH]c(C)cc4c3F)ncnc2cc1OCCCN1CCCC1` .
Found: 82.5% (inactive)

For every listed record, write down its growth.
1. Cc1cc2c(-c3nc4ccccn4c3N)c(O)c(O)cc2c(O)c1-c1c(C)cc2c(-c3nc4ccccn4c3N)c(O)c(O)cc2c1O
2. CC(CCCC(=O)O)c1ccoc1 (centres undefined)
3. Nc1cc2c(cc1Br)-c1c(C(=O)O)cccc1C2O (centres undefined)
4. Cc1nn(-c2ccccc2)c2c1N=c1s/c(=C\c3cn(-c4ccccc4)nc3-c3ccc(Cl)cc3)c(=O)n1C(C)N2 (centres undefined)
5. Cc1ccc(F)c(NC(=O)Nc2ccc(-c3cccc4[nH]nc(N)c34)cc2)c1

Found:
1. 14.6% (inactive)
2. 89.6% (inactive)
3. 105% (inactive)
4. 103% (inactive)
5. 1.25% (active)

* * *

Tested on: A549/ATCC NSCLC
Test: NCI-60 one-dose screen, 48 h
Details: 10 µM unless noted
The panel holds about 83,000 compounds, 20% with a hit somewhere; the sample as a whole holds those more often. Active and inactive are the calls of the source. The calls were made as follows: active = growth percent below 10; inactive = the rest.
Hi! Could you answer with just one of these? Yes (active), No (inactive)

# count of solved cases: 3
Lookup: # outcome recorded in this test, key = `N#Cc1c(NC(=O)c2ccco2)[n+]([O-])c2cc(F)c(F)cc2[n+]1[O-]`
Found: No

Lookup: Name the outcome recorded for `O=C(NO)c1ccc(Cn2c(=O)n(CCc3ccccc3)c(=O)c3ccccc32)cc1` in the assay.
Found: No

Lookup: Assay result, entry `Cn1c(Nc2ccc(C(F)(F)F)cc2)nc2cc(Oc3ccnc(-c4ncc(C(F)(F)F)[nH]4)c3)ccc21` — outcome?
Found: No

***
Lookup: // outcome(item) with item = `FC(F)(F)c1ccc(CNc2ccc(Cc3c[nH]c4ncc(Cl)cc34)cn2)cn1`
Found: Yes

Lookup: Please indicate how the test categorized `O=S1(=O)OC(c2ccc(O)c(Cl)c2)(c2ccc(O)c(Cl)c2)c2ccccc21` .
Found: No

* * *

System: UACC-257 melanoma
Assay: NCI-60 one-dose screen, 48 h
Conditions: 10 µM unless noted
This is part of a sample that, as a whole, favours compounds with a hit. Of some 83,000 tested, about 20% had one in any assay. Activity calls are given as the source filed them. How the source made its calls: active means growth percent below 10; inactive means the rest.
Form entry, call: pick from active, inactive

# example entries with known answers
Lookup: Short answer needed: outcome of this test for `CN(c1ncccc1CNc1nc(Nc2ccc3c(c2)CC(=O)N3)ncc1C(F)(F)F)S(C)(=O)=O` ?
Found: active

Lookup: So what was the verdict on `CNC(=O)c1cc(Oc2ccc(NC(=O)Nc3cc(C(C)(C)C)nn3-c3ccc4ncccc4c3)c(F)c2)ccn1` in this test?
Found: active

Lookup: What did this assay record as the result for `C/C(=N\NC(=O)Cn1c(-c2ccc(S(C)(=O)=O)cc2)nc2ccccc21)c1ccc(Cl)cc1` ?
Found: inactive

Lookup: Per the assay record, what outcome was assigned to Cc1cccc(C)c1N1C(c2ccccc2)=NNC12C=CC(=O)c1c(O)cccc12 (centres undefined) ?
Found: inactive

Lookup: Entry `CO[C@@H](C)Cn1c(=O)n(C)c2cnc3ccc(-c4cncc(C(C)(C)O)c4)cc3c21` : call = ?
Found: active

More entries:
Lookup: Entry `Nc1nc(Nc2ccccc2)c(C=Nc2ccccc2)c(=O)[nH]1` : call = ?
Found: inactive

Lookup: Can you look up the reported call for CC[C@@H]1C(=O)N(C)c2cnc(Nc3ccc(C(=O)NC4CCC(N5CCN(CC6CC6)CC5)CC4)cc3OC)nc2N1C(C)C (some centres undefined) for me?
Found: active
